# test: chemical genetic growth profiling, strain panel (AID 1159580);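 also: tested at 20 µM; growth read once vehicle control cultures reached saturation at 30 °C; 1 = growth at the plate median or of vehicle wells; lower values mean less growth of the strain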
# condition parameters: S. cerevisiae deletion strains, growth OD, locus YLR027C, strain aat2, hits give low values
The whole screen tested about 5,500 compounds, of which about 2,000 (36%) were called active. Inconclusive results (about 18%) are left out. This is one part of the list.
value type: normalized growth
Lab note: record just the number, no unit beside it.

OC[C@H]1O[C@@](CO)(O[C@@H]2O[C@H](CO)[C@@H](O)[C@H](O)[C@H]2O)[C@@H](O[C@@H]2O[C@H](CO)[C@@H](O)[C@H](O)[C@H]2O)[C@@H]1O :: 1.01
OC[C@H]1O[C@@H](O[C@@H]2[C@@H](CO)O[C@](O)(CO)[C@H]2O)[C@H](O)[C@@H](O)[C@H]1O :: 1.01

Exam item: Return value of normalized growth for input OC[C@H]1O[C@@H](O[C@H]2[C@H](O)[C@@H](O)[C@@H](O)O[C@@H]2CO)[C@H](O)[C@@H](O)[C@@H]1O , no commentary.
Marked response: 1.01

* * *

# test: chemical genetic growth profiling, strain panel (AID 1159580)
# condition parameters: S. cerevisiae deletion strains, growth OD, locus YNR049C, strain mso1, hits give low values
The whole screen tested about 5,500 compounds, of which about 2,000 (36%) were called active. Not shown: some 18% with an inconclusive outcome. The list shows a part of the results.
value type: normalized growth

Worked examples, 5 molecules total:
CC(C)(C)NCC(O)c1ccc(O)c(CO)c1 (stereo unspecified) :: 1.01 (inactive)
C[n+]1ccccc1/C=N/O :: 1.01 (inactive)
CC(CCc1ccccc1)NCC(O)c1ccc(O)c(C(N)=O)c1 (stereo unspecified) :: 0.999 (inactive)
Nc1ccc(C(=O)O)cc1 :: 1.02 (inactive)
COc1ccc([C@@H]2CC(=O)c3c(O)cc(O[C@@H]4O[C@H](CO[C@H]5O[C@@H](C)[C@H](O)[C@@H](O)[C@H]5O)[C@@H](O)[C@H](O)[C@H]4O)cc3O2)cc1O :: 0.993 (inactive)

From here, focus on the item given below.
Exam item: State its normalized growth for this molecule: CC(=O)c1ccc(O)c(CC=C(C)C)c1
Marked response: 0.968 (inactive)

* * *

# test: chemical genetic growth profiling, strain panel (AID 1159580)
# condition parameters: S. cerevisiae deletion strains, growth OD, locus YDL101C, strain DUN1
The whole screen tested about 5,500 compounds, of which about 2,000 (36%) were called active. Not shown: some 18% with an inconclusive outcome. Rule as the data show it: active = normalized growth mostly below about 0.91 (no sharp cut-off); inconclusive = no clear call, values can overlap the other calls; inactive = mostly above about 0.92. The list shows a part of the results.
Please reply with one of these outcomes: active, inactive

Record excerpt, results attached:
CCOC(=O)CSc1nc2cc(C(F)(F)F)cnc2n1C :: inactive
Cc1c(C)c(C)c(C(=O)c2ccc(N=Cc3cc(Cl)cc(Cl)c3O)cc2)c(C)c1C :: inactive
C/C1=C/CC(C)(C)/C=C/C/C(C)=C/CC1 :: inactive
CC(C)CCCC(C)[C@H]1CCC2C3C(=O)C=C4C[C@@H](O)CC[C@]4(C)C3CC[C@@]21C (stereo partly specified) :: inactive
CC12CCC(=O)C=C1CCC1C2[C@@H](O)CC2(C)C1CC[C@]2(O)C(=O)COP(=O)(O)O (stereo partly specified) :: inactive
C/C1=C\CC(C)(C)/C=C/CC2(C)OC2CC1 (stereo unspecified) :: inactive
Cc1cccc(Cn2nc(C(C)(C)C)cc2C(=O)O)c1 :: inactive
CC(=O)c1ccc(Cl)c(N=Cc2cc(Br)cc(Br)c2O)c1 :: active
CC(C)(C)c1cc(C(=O)NNC(=O)c2cc(C(F)(F)F)cc(C(F)(F)F)c2)n(Cc2ccc(F)cc2)n1 :: inactive
CC(C)=CC1C(C(=O)O)C1(C)C (stereo unspecified) :: inactive

Exam item: Assay outcome for NS(=O)(=O)c1cc2c(cc1Cl)NC(CSCc1ccccc1)=NS2(=O)=O : what was it?
Marked response: inactive

Exam item: I would be grateful if you could indicate the recorded call for O=C(O)CCCNCc1cccc2ccccc12 .
Marked response: inactive

Exam item: # fetch the recorded call for CC(C)(C)c1cc(C(=O)NNc2cccc(Cl)c2)n(Cc2ccccc2)n1 here
Marked response: inactive

Exam item: I'd appreciate the recorded outcome for N/C(Cc1cccc2ccccc12)=N/O from this test.
Marked response: inactive

Exam item: I would be grateful if you could indicate the recorded call for O=C(O)c1cc(O)c2c(c1)[C@@H]([C@H]1c3cc(C(=O)O)cc(O)c3C(=O)c3c(O[C@H]4O[C@H](CO)[C@@H](O)[C@H](O)[C@H]4O)cccc31)c1cccc(O[C@H]3O[C@H](CO)[C@@H](O)[C@H](O)[C@H]3O)c1C2=O .
Marked response: inactive

Exam item: So what was the verdict on NC(N)=NC(N)=Nc1ccc2c(c1)OCCO2 in this test?
Marked response: inactive

Exam item: Field: outcome | Entry: CC1(C)CC2C1CC[C@]1(CBr)CCC3C(CC(=O)O)C(=O)O[C@@]32C1 (stereo partly specified)
Marked response: inactive

Exam item: What classification did C=C1C[C@]23C[C@@]1(O)CC[C@H]2[C@@]12C=C[C@H](O)[C@@](C)(C(=O)O1)[C@H]2[C@@H]3C(=O)O end up with in this test?
Marked response: inactive

Exam item: So what was the verdict on CCOC(=O)c1ccc(Cl)c(N=Cc2cc(Cl)cc(Cl)c2O)c1 in this test?
Marked response: inactive

Exam item: Tell me the recorded outcome of this test for N/C(Cc1cccc2ccccc12)=N/OC(=O)c1ccc(Cl)cc1 .
Marked response: inactive

Exam item: What classification did COc1ccc2cc(CCC(C)=O)ccc2c1 end up with in this test?
Marked response: inactive

* * *

# test: chemical genetic growth profiling, strain panel (AID 1159580);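 also: tested at 20 µM; growth read once vehicle control cultures reached saturation at 30 °C; 1 = growth at the plate median or of vehicle wells; lower values mean less growth of the strain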
# condition parameters: S. cerevisiae deletion strains, growth OD, locus YOR136W, strain idh2, hits give low values
The whole screen tested about 5,500 compounds, of which about 2,000 (36%) were called active. Another 18% or so got no clear call; they are omitted. Some of the results follow.
value type: normalized growth
Just the number.

Examples from the recorded data:
CN(C)C1C(=O)C(C(N)=O)=C(O)C2(O)C(=O)C3=C(O)c4c(O)ccc(Cl)c4C(C)(O)C3CC12 (configuration not stated) :: 0.992
COC(=O)c1c(OC)cc2c(c1C)Oc1c(Cl)c(O)c(Cl)c(C)c1C(=O)O2 :: 0.943
OC[C@H]1O[C@@H](O[C@@H]2[C@@H](CO)O[C@](O)(CO)[C@H]2O)[C@H](O)[C@@H](O)[C@H]1O :: 0.981

Exam item: Supply reported normalized growth belonging to this compound: CC(=O)Oc1c(Cl)c(C)c2c(c1Cl)OC(=O)c1c(C)c(Cl)c(OC(C)=O)c(Cl)c1O2
Marked response: 0.976

Exam item: Return normalized growth (reported value) for this compound: COc1ccc([C@@H]2CC(=O)c3c(O)cc(O[C@@H]4O[C@H](CO[C@H]5O[C@@H](C)[C@H](O)[C@@H](O)[C@H]5O)[C@@H](O)[C@H](O)[C@H]4O)cc3O2)cc1O
Marked response: 0.981

Exam item: Note normalized growth for the compound shown: COC(=O)c1c(C)c2c(c(C)c1O)OC(=O)c1c(C)c(Cl)c(O)c(Cl)c1O2
Marked response: 0.997

Exam item: Return normalized growth (reported value) for this compound: OC[C@H]1O[C@@](CO)(O[C@@H]2O[C@H](CO)[C@@H](O)[C@H](O)[C@H]2O)[C@@H](O[C@@H]2O[C@H](CO)[C@@H](O)[C@H](O)[C@H]2O)[C@@H]1O
Marked response: 1.02

* * *

# test: chemical genetic growth profiling, strain panel (AID 1159580);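 also: tested at 20 µM; growth read once vehicle control cultures reached saturation at 30 °C; 1 = growth at the plate median or of vehicle wells; lower values mean less growth of the strain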
# condition parameters: S. cerevisiae deletion strains, growth OD, locus YMR263W, strain SAP30, hits give low values
About 2,000 (36%) of roughly 5,500 compounds were called active. Inconclusive results (about 18%) are left out. The list shows a part of the results.
value type: normalized growth

O=C(O)CSC1CCS(=O)(=O)C1 (stereo not drawn) :: 1 (inactive)
O=C(OCc1ccccc1)c1ccccc1 :: 0.981 (inactive)
CCOC(=O)c1ccc(NC(=O)CCC(=O)O)cc1 :: 0.981 (inactive)
Oc1cccc(O)c1 :: 1.01 (inactive)
CCOC(=O)c1ccc(NC(N)=S)cc1 :: 0.935 (inactive)

Exam item: Hello, please tell me recorded normalized growth for this one: O=c1[nH]c2cc(Cl)ccc2c(O)c1-c1ccc(Oc2ccccc2)cc1
Marked response: 0.999 (inactive)

* * *

# test: chemical genetic growth profiling, strain panel (AID 1159580);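 also: tested at 20 µM; growth read once vehicle control cultures reached saturation at 30 °C; 1 = growth at the plate median or of vehicle wells; lower values mean less growth of the strain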
# condition parameters: S. cerevisiae deletion strains, growth OD, locus YKL085W, strain MDH1 (second series), hits give low values
The campaign covered roughly 5,500 compounds. About 2,000 (36%) were called active. Not shown: some 18% with an inconclusive outcome. This is one part of the list.
Reported values of normalized growth for individual entries
Give the figure by itself; no unit, no explanation.

Exam item: Assign normalized growth to the following record: OC[C@H]1O[C@@H](O[C@H]2[C@H](O)[C@@H](O)[C@@H](O)O[C@@H]2CO)[C@H](O)[C@@H](O)[C@@H]1O
Marked response: 1.04
